Data provenance is patent US8183239B2.

# Lookup of reported pIC50 keyed by entry
molecular target: Y2 receptors (Homo sapiens); construct: endogenous in cells; host or cells: KAN-Ts cells (membranes); test: Radioligand binding assay ([125I]PYY, KAN-Ts cell membranes); conditions: Table 1, [125I]PYY 80 pM, average of results, read-out: IC50
Sequence (P49146 whole entry): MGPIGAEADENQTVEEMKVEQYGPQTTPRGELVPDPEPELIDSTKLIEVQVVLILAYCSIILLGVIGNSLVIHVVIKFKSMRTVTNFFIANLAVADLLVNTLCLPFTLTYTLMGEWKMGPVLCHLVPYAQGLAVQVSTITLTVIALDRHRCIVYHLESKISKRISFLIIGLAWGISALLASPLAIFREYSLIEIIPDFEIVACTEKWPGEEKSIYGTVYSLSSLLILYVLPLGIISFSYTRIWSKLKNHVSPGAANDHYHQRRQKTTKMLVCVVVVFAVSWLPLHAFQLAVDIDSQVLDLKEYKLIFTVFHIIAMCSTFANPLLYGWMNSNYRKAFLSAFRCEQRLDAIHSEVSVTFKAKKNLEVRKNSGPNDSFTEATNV
// returns pIC50 (minus log10 of molar concentration), number only

Here are 5 molecules together with their reported answers.
INSERT INTO measurements (molecule, recorded_metric, val) VALUES
  ('CCNC(=O)C(c1ccccc1)N1CCN(c2ccc(NC(=O)NCc3ccc(F)cc3)cc2F)CC1 (centres unmarked)', 'pIC50', 5.70),
  ('CCN(CC)C(=O)C(c1ccccc1)N1CCN(c2ccc(NC(=O)Cc3c(C)noc3C)cc2F)CC1 (centres unmarked)', 'pIC50', 7.70),
  ('CCNC(=O)C(c1ccccc1)N1CCN(c2ccc(NC(=O)N[C@@H](C)c3ccc(F)cc3)cc2F)CC1 (some centres unmarked)', 'pIC50', 5.54),
  ('COC(=O)C(c1ccccc1)N1CCN(c2ccc(NC(=O)c3ccccc3Cl)cc2)CC1 (centres unmarked)', 'pIC50', 4.90),
  ('CCN(CC)C(=O)C(c1ccccc1)C1CCN(c2ccc(NC(=O)[C@@H]3CCOC3)cc2F)CC1 (some centres unmarked)', 'pIC50', 7.26);

query: Annotate the molecule COC(=O)C(c1ccccc1)N1CCN(c2ccc(NC(=O)CC(C)C)cc2)CC1 (centres unmarked) with its measured pIC50.
result: 5.21

query: Annotate the molecule COC(=O)C(c1ccccc1)N1CCN(c2ccc(NC(=O)c3ccccc3C)cc2Cl)CC1 (centres unmarked) with its measured pIC50.
result: 6.10

query: Annotate the molecule CCN(CC)C(=O)C(c1ccccc1)N1CCN(c2ccc(NC(=O)C3CCCC3)cc2F)CC1 (centres unmarked) with its measured pIC50.
result: 7.10

query: Annotate the molecule CCNC(=O)C(c1ccccc1)N1CCN(c2ccc(NC(=O)Nc3c(C)noc3C)cc2F)CC1 (centres unmarked) with its measured pIC50.
result: 7.38

query: Annotate the molecule `CCC(CC)C(=O)Nc1ccc(N2CCC(=C(C(=O)N(CC)CC)c3cccc(F)c3)CC2)c(F)c1` with its measured pIC50.
result: 7.15

query: Annotate the molecule CC[C@H](C)C(=O)Nc1ccc(N2CCN(C(C(=O)N(CC)CC)c3ccccc3)CC2)c(F)c1 (some centres unmarked) with its measured pIC50.
result: 7.15

query: Annotate the molecule CCNC(=O)C(c1ccccc1)C1CCN(c2ccc(NC(=O)C3(C)CCCCC3)cc2C#N)CC1 (centres unmarked) with its measured pIC50.
result: 7.00

query: Annotate the molecule CCN(CC)C(=O)C(c1ccccc1)N1CCN(c2ccc(NC(=O)c3ccccc3Br)cc2F)CC1 (centres unmarked) with its measured pIC50.
result: 6.47

query: Annotate the molecule CCN(CC)C(=O)C(c1ccccc1)C1CCN(c2ccc(NC(=O)Cc3cscc3C)cc2F)CC1 (centres unmarked) with its measured pIC50.
result: 7.10
